Biological target: Potassium voltage-gated channel subfamily KQT member 1 (Homo sapiens)
Test: KCNQ1 potassium channel potentiators, confirmation, FluxOR thallium flux, CHO cells, duplicates (AID 493007)
Details: KCNQ1 cell line, FluxOR thallium flux fluorescence, at 10 µM, % of reference activator effect, buffer zero
Activity calls are given as the source filed them.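 How the source made its calls: active means potentiation averaged over duplicate wells exceeding buffer-only control mean by more than 3 SD; inactive means the rest.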
Labels: T (active), F (inactive)

{"columns": ["molecule", "classAssignment"],
 "data": [
  ["Cc1ccc(-c2n[nH]c(=S)nc2-c2ccc(C)cc2)cc1", "T"],
  ["Cn1ncc2c(O/N=C(\\N)c3ccc(C(C)(C)C)cc3)ncnc21", "F"],
  ["C=C1CCN(c2ccc(C(=O)NCc3ccc(C)cc3)cc2[N+](=O)[O-])CC1", "T"],
  ["CCCN(CCC)C(=S)NC(=O)c1ccc(-c2ccccc2)cc1", "T"],
  ["O=C(NNC(=S)NC(=O)c1ccc(Br)cc1)c1cccc([N+](=O)[O-])c1", "F"],
  ["CC(OC(=O)CCCNC(=O)c1ccc(Cl)cc1)C(=O)N(C)Cc1ccccc1 (stereo not drawn)", "F"],
  ["COc1cccc(C(=O)COc2ccc(NC(=O)c3ccccc3)cc2)c1", "F"],
  ["Cc1ccc(NC(=O)Cn2nc(C)c3ccccc3c2=O)c(C)c1", "F"],
  ["CCn1c(=S)[nH]c2scc(-c3cccs3)c2c1=O", "T"],
  ["Cc1cccc(-n2c(=S)[nH]c3c(oc4ccccc43)c2=O)c1", "F"],
  ["Cc1sc(NC(=O)c2ccccc2)c(C(c2ccc(Cl)cc2)N2CCN(CCO)CC2)c1C (stereo not drawn)", "F"],
  ["Cc1cccc(C(=O)NC(=S)NNC(=O)c2ccccc2Cl)c1", "T"],
  ["O=c1c(O)c(-c2cccs2)oc2ccccc12", "T"],
  ["COc1ccccc1-n1cnc2cc(NCc3ccco3)ccc21", "T"],
  ["COc1ccc(C2CC(c3c(-c4ccccc4)c4cc(Cl)ccc4[nH]c3=O)=NN2S(C)(=O)=O)cc1OC (stereo not drawn)", "F"],
  ["COc1ccccc1C(=O)NNC(=O)C(=O)Nc1ccc(C)c(Cl)c1", "T"],
  ["O=C(NNC(=O)c1ccc(Cl)c(Cl)c1)c1ccncc1", "T"],
  ["CC1CCN(C(=S)NC(=O)c2cccs2)CC1", "T"],
  ["Cc1nc(NC(=S)NC(=O)c2cccs2)ccc1Br", "T"],
  ["Cc1[nH]c(-c2ccccn2)nc(=S)c1Cl", "T"],
  ["CCc1nccn1S(=O)(=O)c1ccc2ccc(C)cc2c1", "F"],
  ["COC(=O)C1C(c2ccc(OC)c(OC)c2)NC(c2ccc(OC)c(OC)c2)C(C(=O)OC)S1(=O)=O (stereo not drawn)", "F"],
  ["O=C1Nc2cc(C(=O)NCCCN3CCOCC3)ccc2S/C1=C/c1cccc(Cl)c1", "F"]
]}

----------
Target: Potassium voltage-gated channel subfamily E member 1 (Homo sapiens) + Potassium voltage-gated channel subfamily KQT member 1 (Homo sapiens) (UniProt P15382+P51787)
Test: KCNQ1/KCNE1 channel inhibition, selectivity assay for KCNQ1 inhibitor project, CHO-K1 cells, thallium flux, FluxOR (AID 652147)
Conditions: FluxOR thallium flux fluorescence, at 10 µM
Some of the results follow. Activity calls are given as the source filed them.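 Rule for the calls: active = mean percent inhibition of duplicate wells above the buffer-only control mean plus 3 SD of those controls; inactive = the rest.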
Outcomes: Y = active, N = inactive

{"columns": ["compound", "classAssignment"],
 "data": [
  ["Cc1cc(C)cc(NC(=O)NC2CCCCCCC2)c1", "Y"],
  ["O=C(Nc1nnc(S(=O)(=O)N2CCCCCC2)s1)c1cccc(Br)c1", "N"],
  ["COc1ccc(Nc2ncnc3sc(-c4ccccc4)cc23)c(OC)c1", "Y"],
  ["Cn1nc(-c2ccc(Cl)cc2)c2cc(C(=O)NCc3ccco3)sc21", "N"],
  ["Cc1nc(Nc2ccc3c(c2)OCCO3)c2nnn(Cc3ccccc3Cl)c2n1", "Y"],
  ["Cc1nc2ccccc2cc1OCc1ccc(F)cc1", "Y"],
  ["Cc1ccc(N2CCN(S(=O)(=O)c3ccc(F)cc3)CC2)c(C)c1", "Y"],
  ["Cc1cc2nc3c(=O)n(Cc4ccccc4)c(=O)[nH]c3nc2cc1N", "Y"],
  ["O=C(Nc1cccc(Cl)c1)Nc1ccccc1NS(=O)(=O)c1cccs1", "Y"],
  ["C=CCOC(=O)C1=C(C)NC(SCC(=O)OCC)=C(C#N)C1c1ccc(C)cc1 (stereo unspecified)", "Y"],
  ["CCOC(=O)N1CCN(C(=O)C2CCN(c3ncnc4c3sc3cccc(F)c34)CC2)CC1", "Y"]
]}
